property_name: melting point

[Q] What does the data say about its melting point? Entry: CC(C)(C)OC(=O)c1cccc(COc2ccc(CC(=O)NC3(C(=O)O)Cc4ccc(-c5ccc(Cl)cc5)cc4C3)cc2)c1 (stereo not drawn)
[A] 177 to 179 °C

[Q] Could you share which melting point value was measured for CC(C(=O)NC1(C(=O)O)Cc2ccc(-c3ccc(Cl)cc3)cc2C1)c1ccccc1 (stereo not drawn) ?
[A] 200 to 201 °C

Next molecule, melting point to be filled in.
[Q] Name the reported melting point value associated with the molecule O=C(Cc1ccc(OCc2ccsc2)cc1)NC1(C(=O)O)Cc2ccc(-c3ccc(Cl)cc3)cc2C1 (stereo not drawn)
[A] 224 to 226 °C

---

property_name: melting point (°C)
Write the number in °C without appending the unit.

[Q] Which melting point value belongs to Cc1c(C(=O)NC2(C(=O)O)Cc3cccc(Br)c3C2)oc2cc(-c3ccc(Cl)cc3)ccc12 (stereo not drawn) [Example C113] ?
[A] 230

[Q] Item O=C(N[C@@H](Cc1ccc(OCc2ccccc2)cc1)C(=O)O)c1cn2cc(-c3cccnc3)ccc2n1 [Example E20] has what recorded melting point?
[A] 244

[Q] Could you tell me which melting point is on file for O=C(CC1CCN(C(=O)c2ccc(F)cc2)CC1)NC1(C(=O)O)Cc2ccc(-c3ccc(Cl)cc3)cc2C1 (stereo not drawn) [Example B166] ?
[A] 242

[Q] Which measured melting point value corresponds to O=C(N[C@@H](Cc1ccc(OCc2ccccc2)cc1)C(=O)O)c1cn2cc(-c3ccccc3Cl)ccc2n1 [Example E24] ?
[A] 228

---

property_name: melting point

[Q] What melting point value was documented for this compound, O=C(N[C@@H](Cc1ccc(OCc2ccccc2)cc1)C(=O)O)c1cn2ccc(-c3ccc(Cl)cc3)cc2n1 [Example E56] ?
[A] 248 to 249 °C

[Q] Query: melting point; subject: O=C(Cc1ccc(OCc2ccoc2)cc1)NC1(C(=O)O)Cc2ccc(-c3ccc(Cl)cc3)cc2C1 (stereo not shown) [Example B146]
[A] 200 to 202 °C

[Q] Entry Cc1cccc(COc2ccc(C[C@H](NC(=O)c3cc4cc(-c5ccc(Cl)cc5)ccc4s3)C(=O)O)cc2)c1 [Example C127] has what melting point?
[A] 192 to 193 °C

[Q] Give the measured melting point of Cc1c(C(=O)N[C@@H](Cc2ccc(OCc3ccsc3)cc2)C(=O)O)oc2cc(-c3ccc(Cl)cc3)ccc12 [Example C118] .
[A] 111 to 113 °C

[Q] Record request: melting point value, item Cc1c(C(=O)N[C@@H](Cc2ccc(OCc3ccoc3)cc2)C(=O)O)oc2ccc(-c3ccc(Cl)cc3)cc12 [Example C150]
[A] 196 to 197 °C

***
[Q] Give its melting point value. Item: Cc1c(C(=O)NC(Cc2ccc(OCc3ccc(F)cc3)cc2)C(=O)O)oc2cc(-c3ccc(Cl)cc3)ccc12 (racemic) [Example C117]
[A] 147 to 149 °C

[Q] Param item = CC(C)(C)OC(=O)NCCC(=O)NC1(C(=O)O)Cc2ccc(-c3ccc(Cl)cc3)cc2C1 (stereo not shown) [Example B118] ; retrieve measured melting point.
[A] 212 to 214 °C

---

property_name: melting point

[Q] Can you look up the measured melting point of O=C(N[C@@H](Cc1ccc(OCc2ccccc2)cc1)C(=O)O)c1cn2cc(-c3ccc(Cl)cc3)cnc2n1 [Example E4] for me?
[A] 252 to 253 °C

[Q] Look up melting point: O=C(N[C@@H](Cc1ccc(OCc2ccccc2)cc1)C(=O)O)c1cc2ccc(-c3ccc(Cl)cc3)cc2[nH]1 [Example C163]
[A] 202 to 204 °C

[Q] Can you share its melting point? I mean this compound: O=C(Cc1ccc(OCc2ccc(F)cc2)cc1)NC1(C(=O)O)Cc2ccc(-c3ccc(Cl)s3)cc2C1 (centres unmarked) [Example B186]
[A] 214 to 216 °C

***
[Q] Fill in the blank: the reported melting point of O=C(N[C@@H](Cc1ccc(OCc2cccc(F)c2)cc1)C(=O)O)c1cc2cc(-c3ccc(Cl)cc3)ccc2s1 [Example C126] is ____.
[A] 184 to 185 °C

[Q] What measured melting point goes with O=C(N[C@@H](Cc1ccc(OCc2ccccc2)cc1)C(=O)O)c1cn2ccc(C#Cc3ccccc3)cc2n1 [Example E58] ?
[A] 243 °C (dec.)
